Entry source: patent US12692310B2

# Kd values compiled below
molecular target: truncated hASIC1a (amino acids 13-464) (human) (UniProt P78348); test: Octet, scFv format, ΔhASIC1a nanodiscs

{"binder": "ASC03 (scFv, V domains shown, also called ASC03 scFv; ASC03 (scFv format)) VH: QVQLVESGAEVKKPGSSVKVSCKASGGNFRKYSISWVRQAPGQGLEWMGWISAYNGNTNYAQKLQGRVTMTTDTSTSTAYMELRSLRSDDTAVYYCARDFDPYYDAFDIWGQGTTVTVSS VL: QSALTQPASVSGSPGQSITISCTGTSSDVGAYNYVSWYQQHPGKAPKLMIYDVSNRLSGVSNRFSGSKSGNRASLTISGLQAEDEADYYCSSYRSGNSLAFGGGTKLTVLG", "Kd": "259 nM"}
{"binder": "ASC05 (scFv, V domains shown, also called ASC05 scFv; ASC05 (scFv format)) VH: QVQLVESGAEVKKPGASVRVSCKASGYSFTNYYMHWVRQAPGQGLEWMGIISPSGRSTSFAQKFQGRVTMTRDTSTSTVYMHLSSLRSDDTAVYYCARGAWSTDAFDIWGQGTTVTVSS VL: QSALTQPASVSGSPGQSITISCTGTSSDVGSYNLVSWYQQHPGKAPKLMIYEGSKRPSGVSNRFSGSKSGNTASLTISGLQAEDEAEYHCSSFTGKGYVFGTGTKLTVLG", "Kd": "137 nM"}
{"binder": "ASC04 (scFv, V domains shown, also called ASC04 scFv; ASC04 (scFv format)) VH: QVQLVQSGAEVKKPGSSVKVSCKASGGTFSTYAINWVRQAPGQGLEWMGWMNPNSGNTGYAQKFQGRVTMTRNTSISTAYMELSSLRSEDTAVYYCARYSYGMDVWGQGTTVTVSS VL: QAVLTQPSSLSASPGASVSLTCTLRSGINVGAYRIYWYQQKPGSPPQFLLRYKSDSDKQQGSGVPSRFSGSRDASANAGILLISGLRSEDEADYYCAIWHSSAWVFGGGTKLTVLG", "Kd": "20.8 nM"}
{"binder": "ASC01 (scFv, V domains shown, also called ASC01 scFv; ASC01 (scFv format)) VH: QVQLVETGPRLVKPSQTLSLTCTVSGGSINSGGYYWGWIRQHSGKGLEWIGYIYPRGSSYYNPSLRSRVTISADTSRNNFSLKLTSVTAADTAVYYCARVGYTGAFDIWGQGTLVTVSS VL: QAVLTQPSSVSAAPGQKVTISCSGGNSNIGNNYVSWYQQLPGTAPKLLIYDNNKRPSGIPDRFSGSKSGTAATLGITGLQTGDEADYYCGTWDSSLSAGVFGEGTQLTVLG", "Kd": "45.1 nM"}
{"binder": "ASC06 (scFv, V domains shown) VH: QVQLQQSGGGLVQPGGSLRLSCAASGFTFSSYAMSWVRQAPGKGLEWVSAISGSGGSTYYADSVKGRFTISRDNSKNTLYLQMNSLRAEDTAVYYCAKDSFYGYSKGDWGQGTLVTVSS VL: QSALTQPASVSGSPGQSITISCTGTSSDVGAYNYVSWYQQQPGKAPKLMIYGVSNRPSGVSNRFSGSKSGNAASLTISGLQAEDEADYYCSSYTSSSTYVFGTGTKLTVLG", "Kd": "21.7 nM"}

Turning now to a further binder:
input: For the binder shown here, ASC02 (scFv, V domains shown, also called ASC02 scFv; ASC02 (scFv format)) VH: QVQLVQSGAEVKKPGASMKVSCTTSGYTVTGYYIHWLRQAPGQGFEWMGWINPNLGVTNYAQKFQGRVSMTRDPSIKTAYLELSGLRSDDTAMYYCARASTGGIFYDYWGQGTLVTVSS VL: NFMLTQPHSMSESPGKTVTISCTRSSGNIASNYVQWYQQRPGSSPTTVIYDDNQRPSGVPDRFSGSIDSISNSASLTISGLKTEDEADYYCQSYDSSSVIFGGGTKLTVLG , give the reported Kd.
output: 262 nM
